- assay.details: in vivo
- run.parameters: mouse, po
- Source text: Due to the high positive charge density and high water solubility, ionenes strongly interact with a wide variety of cell materials.
value.type: LD50

As a guide, the following entries are already answered.
INSERT INTO results (chemical_structure, result) VALUES
  ('C[N+]1(C)CC[N+](C)(C)CC1', '> 1000 mg/kg'),
  ('C[N+](C)(CBr)CCCCCC[N+](C)(C)CBr', '300 to 500 mg/kg'),
  ('C[N+](C)(CBr)CCCC[N+](C)(C)CBr', '> 1000 mg/kg');

Here is another compound to look at.
LD50 for C[N+](C)(CCBr)CCCCCC[N+](C)(C)CCBr is 100 to 200 mg/kg

###

- assay.details: in vivo
- run.parameters: in vivo, iv
- From the text: Protamine sulfate and toluidine blue, neither of which are free of toxic effects, are clinically used as antiheparin agents.
value.type: LD50 (mg/kg)
Supply the numeric figure in mg/kg, leaving out any unit text.

LD50 for Cc1cc2nc3ccc(N(C)C)cc3[s+]c2cc1N is 45

###

- assay.details: in vivo
- run.parameters: mouse, ip
value.type: LD50

INSERT INTO measurements (chemical_structure, result) VALUES
  ('C[N+](C)(CCBr)CCCCCC[N+](C)(C)CCBr', '10 to 50 mg/kg'),
  ('C[N+](C)(CBr)CCCCCC[N+](C)(C)CBr', '10 to 50 mg/kg'),
  ('C[N+](C)(CBr)CCCC[N+](C)(C)CBr', '> 1000 mg/kg');

LD50 for C[N+]1(C)CC[N+](C)(C)CC1 is > 1000 mg/kg
